Tested on: Plasmodium berghei
Experiment: Luciferase/luciferin-expressing antifolate-resistant parasites were used to infect a culture of HepG2 cells that were pre-incubated with compounds. Infected hepatocytes emit light due to the luciferase reaction. Assay results are presented as the percent inhibition of light emission compared to control. […]
Assay type: functional
Details: sporozoite, read-out: LUCIFERASE INFECTION ASSAY - IC50
pIC50: −log10 of the molar value.
Listing of recorded pIC50 by entry.
Quantity Measured: pIC50

[
  {
    "Compound": "C/N=c1\\scc(-c2ccc(OC(F)F)cc2)n1/N=C/c1ccccc1[N+](=O)[O-]",
    "Quantity Measured": "pIC50",
    "Result": "< 5.00"
  },
  {
    "Compound": "Cc1nn(Cc2nnc(SCc3cccc(C(F)(F)F)c3)o2)c(C)c1Br",
    "Quantity Measured": "pIC50",
    "Result": "< 5.13"
  },
  {
    "Compound": "Cc1nn(-c2ccccc2)c(N2CCCC2)c1/C=N/Nc1ccc(S(N)(=O)=O)cc1[N+](=O)[O-]",
    "Quantity Measured": "pIC50",
    "Result": 5.04
  },
  {
    "Compound": "Nc1cc(C(F)(F)F)cnc1Nc1ccc(Cl)cc1",
    "Quantity Measured": "pIC50",
    "Result": "< 4.94"
  },
  {
    "Compound": "Fc1ccc(COc2ccccc2CNCc2cccnc2)cc1",
    "Quantity Measured": "pIC50",
    "Result": "< 4.99"
  },
  {
    "Compound": "CSc1c(C#N)c(-c2ccc(Cl)cc2)nn1C(=O)c1ccccc1Cl",
    "Quantity Measured": "pIC50",
    "Result": "< 5.07"
  },
  {
    "Compound": "COc1ccc2cc(-c3nc4ccc(Cl)cc4c(-c4ccccc4F)c3C)ccc2c1",
    "Quantity Measured": "pIC50",
    "Result": 5.21
  },
  {
    "Compound": "N#CC(c1nc(-c2ccc(Cl)cc2)cs1)N1CCc2ccccc2C1 (stereo unspecified)",
    "Quantity Measured": "pIC50",
    "Result": "< 5.00"
  },
  {
    "Compound": "Oc1ccccc1Nc1nc(NCc2ccccc2)c2ccccc2n1",
    "Quantity Measured": "pIC50",
    "Result": 5.59
  },
  {
    "Compound": "Cc1nn(C)c2ncc(C(=O)Nc3ccc(F)c(Cl)c3)c(SC(C)C)c12",
    "Quantity Measured": "pIC50",
    "Result": "< 5.08"
  },
  {
    "Compound": "OCCNc1nc(Sc2ccc(Cl)cc2)nc2ccccc12",
    "Quantity Measured": "pIC50",
    "Result": "< 5.00"
  }
]

====

Test system: Plasmodium berghei
Experiment: Luciferase/luciferin-expressing antifolate-resistant parasites were used to infect a culture of HepG2 cells that were pre-incubated with compounds. Infected hepatocytes emit light due to the luciferase reaction. Assay results are presented as the percent inhibition of light emission compared to control. […]
Type: functional
Conditions: sporozoite, FFLUC_HILL_SLOPE 6.95, FFLUC_R_SQUARED 0.127, read-out: LUCIFERASE INFECTION ASSAY - IC50

[
  {
    "Structure Notation": "Cc1[nH]ncc1CCCNc1nc(C(F)(F)F)nc2ccccc12",
    "IC50": "> 10 µM"
  }
]

====

System: Plasmodium berghei
Assay: Luciferase/luciferin-expressing antifolate-resistant parasites were used to infect a culture of HepG2 cells that were pre-incubated with compounds. Infected hepatocytes emit light due to the luciferase reaction. Assay results are presented as the percent inhibition of light emission compared to control. […]
Type: functional
Details: sporozoite, HEPG2TOX_HILL_SLOPE 0.71, HEPG2TOX_R_SQUARED 0.913, PBLUC_HILL_SLOPE 1.13, PBLUC_R_SQUARED 0.519, read-out: LUCIFERASE INFECTION ASSAY - IC50

[
  {
    "Compound": "Cc1sc2ncnc(NC(C)c3ccc(-n4ccnc4)cc3)c2c1C (stereo unspecified)",
    "IC50, nM": 2600
  }
]

====

System: Plasmodium berghei
Assay: Luciferase/luciferin-expressing antifolate-resistant parasites were used to infect a culture of HepG2 cells that were pre-incubated with compounds. Infected hepatocytes emit light due to the luciferase reaction. Assay results are presented as the percent inhibition of light emission compared to control. […]
Format: functional
Conditions: sporozoite, HEPG2TOX_HILL_SLOPE 10.6, HEPG2TOX_R_SQUARED 0.165, read-out: LUCIFERASE INFECTION ASSAY - IC50
Quantity Measured: IC50

[
  {
    "Structure Notation": "CNc1nc2cnc(Nc3cc(C(F)(F)F)ccc3F)cc2n1Cc1ccco1",
    "Result": "> 10 µM"
  }
]

====

System: Plasmodium berghei
Assay: Luciferase/luciferin-expressing antifolate-resistant parasites were used to infect a culture of HepG2 cells that were pre-incubated with compounds. Infected hepatocytes emit light due to the luciferase reaction. Assay results are presented as the percent inhibition of light emission compared to control. […]
Format: functional
Conditions: sporozoite, HEPG2TOX_HILL_SLOPE 1.27, HEPG2TOX_R_SQUARED 0.987, PBLUC_HILL_SLOPE 1.32, PBLUC_R_SQUARED 0.74, read-out: LUCIFERASE INFECTION ASSAY - IC50
pIC50: −log10 of the molar value.

[
  {
    "Structure Notation": "CC(C)CC(=O)NC(=S)Nc1ccc(S(=O)(=O)N(C)Cc2ccccc2)cc1",
    "System": "Plasmodium berghei",
    "pIC50": 6.06
  }
]

====

Tested on: Plasmodium berghei
Assay: Luciferase/luciferin-expressing antifolate-resistant parasites were used to infect a culture of HepG2 cells that were pre-incubated with compounds. Infected hepatocytes emit light due to the luciferase reaction. Assay results are presented as the percent inhibition of light emission compared to control. […]
Format: functional
Conditions: sporozoite, HEPG2TOX_HILL_SLOPE 2.64, HEPG2TOX_R_SQUARED 0.853, PBLUC_HILL_SLOPE 14.9, PBLUC_R_SQUARED 0.662, read-out: LUCIFERASE INFECTION ASSAY - IC50

[
  {
    "Structure Notation": "O=C(/C(=N/Nc1ccc([N+](=O)[O-])cc1)C(=O)C(F)(F)F)c1cccs1",
    "IC50 (nM)": 866
  }
]

====

Test system: Plasmodium berghei
Experiment: Luciferase/luciferin-expressing antifolate-resistant parasites were used to infect a culture of HepG2 cells that were pre-incubated with compounds. Infected hepatocytes emit light due to the luciferase reaction. Assay results are presented as the percent inhibition of light emission compared to control. […]
Assay type: functional
Settings: sporozoite, PBLUC_HILL_SLOPE 3.03, PBLUC_R_SQUARED 0.059, read-out: LUCIFERASE INFECTION ASSAY - IC50

[
  {
    "Structure Notation": "Cn1c(=O)c2ccc(C(=O)Nc3cccc(C(=O)Nc4cccc(C(F)(F)F)c4)c3)nc2n(C)c1=O",
    "System": "Plasmodium berghei",
    "IC50 [µM]": 6.54
  }
]

====

Test system: Plasmodium berghei
Assay: Luciferase/luciferin-expressing antifolate-resistant parasites were used to infect a culture of HepG2 cells that were pre-incubated with compounds. Infected hepatocytes emit light due to the luciferase reaction. Assay results are presented as the percent inhibition of light emission compared to control. […]
Format: functional
Conditions: sporozoite, FFLUC_HILL_SLOPE 15.3, FFLUC_R_SQUARED 0.586, PBLUC_HILL_SLOPE 15.5, PBLUC_R_SQUARED 0.389, read-out: LUCIFERASE INFECTION ASSAY - IC50
pIC50: −log10 of the molar value.
Quantity Measured: pIC50

[
  {
    "Structure Notation": "c1ccc(Sc2c(-c3ccccc3)cc3ccccn23)cc1",
    "Measured Number": 5.07
  }
]

====

Test system: Plasmodium berghei
Assay: Luciferase/luciferin-expressing antifolate-resistant parasites were used to infect a culture of HepG2 cells that were pre-incubated with compounds. Infected hepatocytes emit light due to the luciferase reaction. Assay results are presented as the percent inhibition of light emission compared to control. […]
Format: functional
Details: sporozoite, PBLUC_HILL_SLOPE 0.361, PBLUC_R_SQUARED 0.34, read-out: LUCIFERASE INFECTION ASSAY - IC50
Quantity Measured: IC50

[
  {
    "Structure Notation": "O=C(c1cc(-c2ccccc2)[nH]n1)N1CCN(S(=O)(=O)c2ccccc2)CC1",
    "Result": "1070 nM"
  }
]

====

System: Plasmodium berghei
Assay: Luciferase/luciferin-expressing antifolate-resistant parasites were used to infect a culture of HepG2 cells that were pre-incubated with compounds. Infected hepatocytes emit light due to the luciferase reaction. Assay results are presented as the percent inhibition of light emission compared to control. […]
Type: functional
Settings: sporozoite, HEPG2TOX_HILL_SLOPE 123, HEPG2TOX_R_SQUARED 0.298, PBLUC_HILL_SLOPE 16, PBLUC_R_SQUARED 0.209, read-out: LUCIFERASE INFECTION ASSAY - IC50

[
  {
    "Structure Notation": "Cc1cccc(C(=O)NCC(=O)Nc2ncc(C)s2)c1",
    "IC50 / µM": 9.16
  }
]
